- Test system: OVCAR-5 ovarian
- assayProcedure: NCI tumour cell line growth inhibition, 48 h
The reader will find reported TGI values listed item by item below.

In: State its TGI: "CS(=O)(=O)N(c1cc(-c2ccc3ncnc(Nc4ccc(F)c(Cl)c4)c3c2)cnc1Cl)S(C)(=O)=O"
Out: 10.2 µM

In: Given "CNC(=S)N1CCN(C(C)=O)C1=S" , respond with its TGI.
Out: > 100 µM

In: Supply recorded TGI for "O=C(Nc1nn(C(=O)c2cccnc2)c(=O)s1)c1ccc(Cl)cc1" here.
Out: > 100 µM

* * *

Listing: TGI of selected molecules
- Tested on: HT29 colon
- assayProcedure: NCI tumour cell line growth inhibition, 48 h

molecule	systemUnderTest	endpointValue
COc1cc(CNc2oc(-c3ccccc3)c(-c3ccccc3)c2C#N)cc(CN2CCN(C)CC2)c1O	HT29 colon	3.99 µM

In: State recorded TGI with HT29 colon, entry CC1=CCCC2C(C=O)(C1)CC(C)C2(CO)CC/C(=C/CO)CO (stereo not drawn) , no comment.
Out: > 100 µM

In: # return TGI of O=P(O)(O)OCC1OC(n2cnc3c(NCc4ccccc4)ncnc32)C(O)C1O (stereo not drawn) (system: HT29 colon)
Out: > 36 µM

In: Would you please give the reported TGI of "COc1cc2c3c(n(CCCNCCCN)c(=O)c2cc1OC)-c1cc2c(cc1C3=O)OCO2" with HT29 colon?
Out: 13.6 µM

In: State the measured TGI (HT29 colon) of "COC(=O)[C@H](Cc1cn(C)cn1)NC(=O)[C@H](Cc1ccccc1)NC(=O)Nc1cc(C(F)(F)F)cc(C(F)(F)F)c1"
Out: 29.8 µM

In: GET TGI where system = HT29 colon and item = COc1ccc([C@]23CCC4(OCC(C)(C)CO4)[C@H]4CON(O[C@H](O[C@@H]5CCCCC5C(C)(C)c5ccccc5)C2)[C@@H]43)cc1OC (stereo partly drawn)
Out: > 100 µM

In: // output TGI; input "Cc1cccc2c1[nH]c(=O)c1c3ccccc3cn21" ; system HT29 colon
Out: 13.1 µM

In: Please report TGI with HT29 colon for item O=C1CC[C@@]23CC(=O)O[C@@H]2CCCC3C1 (stereo partly drawn) .
Out: > 100 µM

* * *

NCI-H460 lung measurements of GI50, listed per entry.

> print(dat)
                                   compound  testreadout  endpointvalue
1  CC(C)(C)OC(=O)N[C@@H](Cc1ccccc1)C(=O)N(Cc1ccccc1)C1(C(=O)NCc2ccccc2)CCN(Cc2ccccc2)CC1         GI50           3 µM
2  O=C1NC(c2ccccc2)C2(C(=O)O)CN(C3CC3)c3cc(N4CCNCC4)c(F)cc3C2N1 (stereo not given)         GI50       > 100 µM
3   Cc1ccc(C(=O)NC2CC2)cc1-c1ccc2[nH]ncc2c1         GI50        > 25 µM

In: Specify GI50 for "CCC[CH2][Sn]1([CH2]CCC)[S]CC[N]1S(=O)(=O)c1ccc(C)cc1" , system NCI-H460 lung.
Out: 2.5 µM

In: Look up and report GI50, with NCI-H460 lung as system, for O=P(O)(O)OCC1OC(n2cnc3c(NCc4ccccc4)ncnc32)C(O)C1O (stereo not given)
Out: 10.6 µM

* * *

- Tested on: CCRF-CEM leukemia
- assayProcedure: NCI tumour cell line growth inhibition, 48 h
Overview of reported TGI across a group of molecules:

Previously resolved entries follow.
> print(dat)
                                   molecule  testreadout  endpointvalue
1  CCOC(=O)CN1C(=O)c2cc([N+](=O)[O-])cc3cc([N+](=O)[O-])cc(c23)C1=O          TGI        23.2 µM
2         C=CN(C=C)C(=O)Cn1cc(-c2ccccc2)nn1          TGI       > 100 µM
3  Cc1c(C(=O)NNc2ccccc2)n2c(=S)[nH]nc2c2ccccc12          TGI       > 100 µM
4  COc1ccc(C2C=C(c3ccc(C)cc3)N(c3ccc(OC)cc3[N+](=O)[O-])C3C(=O)OC(=O)C23)c(OC)c1 (stereo not given)          TGI       > 100 µM

Now let's try a different one.
In: Give the measured TGI for COC(C)C(O)(C(=O)OCC1=CCN2CCC(O)C12)C(C)(C)O (stereo not given)
Out: > 100 µM

* * *

Documented TGI across a set of compounds
- Test system: NCI-H460 lung
- assayProcedure: NCI tumour cell line growth inhibition, 48 h

> print(dat)
                                 smilesrepr  endpointvalue
1                   CC(C)(C)N=NC(C)(C)N=C=O       > 100 µM
2  Cc1nc2c(=O)n(-c3ccccc3)c(=O)n(-c3ccccc3)c2o1       > 100 µM

Below: the item to evaluate.
In: State, for NCI-H460 lung, measured TGI of the compound listed here: "CCN(CC)C(=S)N/N=C(/c1ccccc1)c1ccccn1"
Out: 0.385 µM

* * *

- System: HT29 colon
- assayProcedure: NCI tumour cell line growth inhibition, 48 h
testReadout: TGI

Examples with answers:
compound	TGI
C[C@]12C[C@H](O)[C@H]3[C@@H](CCC4=CC(=O)CC[C@@]43C)[C@@H]1CC[C@@H]2c1csc(-c2ccccc2)n1	> 100 µM
CCOC(=O)CN1C(=O)c2cc([N+](=O)[O-])cc3cc([N+](=O)[O-])cc(c23)C1=O	> 100 µM
CC(C)=CCC[C@@H](C)C1=C(Nc2ccccc2F)C(O)=C(C)C(=O)C1=O	24.3 µM
N#Cc1cccc(N2C(=O)C3C4C=CC(C3C2=O)C2C(=O)N(c3cccc(C#N)c3)C(=O)C42)c1 (centres undefined)	> 63.1 µM
OC(CC(O)(C(F)(F)Cl)C(F)(F)Cl)c1ccccc1 (centres undefined)	> 10 µM

In: Item "C[As+](C)(c1ccc(Br)c([N+](=O)[O-])c1)c1ccc(Br)c([N+](=O)[O-])c1.O=[N+]([O-])O" : provide TGI
Out: > 100 µM

In: For the compound "N#CCCN(CCC#N)c1ccc(C(N=Nc2ccccc2)=Nc2ccc(F)cc2)cc1" , give its measured TGI value.
Out: > 100 µM

In: Return the recorded TGI value; entry: CC/C=N\N1C(N)=C(C#N)C(C#N)(C#N)C1CC (centres undefined)
Out: 86.4 µM

In: Specify measured TGI for "NC(=O)C1CCN(Cc2c(Cl)c(Cl)c(CN3CCC(C(N)=O)CC3)c(Cl)c2Cl)CC1" .
Out: > 100 µM

* * *

# TGI values compiled below
- System: SF-268 CNS
- assayProcedure: NCI tumour cell line growth inhibition, 48 h
Answer in µM, number only, no unit symbol.

> print(dat)
                                   compound  testreadout  endpointvalue
1  CC(=O)Oc1ccc2c(-c3ccccc3)c(Oc3ccc(Cl)cc3)c(=O)oc2c1          TGI           22.6

Here's the next entry for you.
In: Report TGI under test system SF-268 CNS for N#Cc1cccc(N2C(=O)C3C4C=CC(C3C2=O)C2C(=O)N(c3cccc(C#N)c3)C(=O)C42)c1 (stereo not given) .
Out: 49.7

* * *

- Tested on: MDA-MB-435
- assayProcedure: NCI tumour cell line growth inhibition, 48 h
Entries and their TGI

Worked cases, answers included:
molecule	testReadout	endpointValue
CN(C)CCNCCCNc1c2ccccc2nc2cccc([N+](=O)[O-])c12	TGI	0.0313 µM
COc1ccc(S(=O)(=O)N(C(C)=O)c2ccccc2/C=C/c2cc[n+]([O-])cc2)cc1	TGI	0.576 µM
CC1=C(C(=O)OCCO[N+](=O)[O-])C(c2ccccc2[N+](=O)[O-])C(C(=O)OC(C)C)=C(C)N1 (configuration not stated)	TGI	28.5 µM
CCc1nc2c(c(N(C)C)c1C(=O)OC)CCc1ccccc1-2	TGI	65.6 µM
CC[C@H](C)[C@H](NC(=O)c1cccn1C)C(=O)N(C)[C@H](C[C@@H](OC(C)=O)c1nc(C(=O)N[C@@H](Cc2ccccc2)C[C@H](C)C(=O)OC)cs1)C(C)C	TGI	0.168 µM

In: Report measured TGI; entry is "CC1=C(C)SC(=C2Sc3c(n(C)c(=O)n(C)c3=O)S2)S1"
Out: > 100 µM

In: Please give the documented TGI of "C[C@]12C[C@H](O)[C@H]3[C@@H](CCC4=CC(=O)CC[C@@]43C)[C@@H]1CC[C@@H]2c1csc(-c2ccccc2)n1"
Out: > 100 µM

In: Specify reported TGI for the molecule shown: "Cc1cccc2c1[nH]c(=O)c1c3ccccc3cn21"
Out: 11.6 µM

In: Annotate the molecule "CCCCNC(=O)Cn1c2ccc(Br)cc2c2nc3ccccc3nc21" with its measured TGI.
Out: > 100 µM

In: State its TGI for this molecule: "CN1C2=Nc3n(c4ccccc4[n+]3C)CN2c2ccccc21"
Out: 91 µM

In: Provide TGI value for the following molecule: "O=c1c2ccc(Cl)cc2oc2c(CNc3ccc(S(=O)(=O)Nc4ncccn4)cc3)cccc12"
Out: > 100 µM

In: Write down TGI measured for item "CC(C)=C/C(CC(O)(C(F)(F)F)C(F)(F)F)=N\O"
Out: > 100 µM

In: Give the value of TGI reported for the following: COc1ccc(C2C=C(c3ccc(C)cc3)N(c3ccc(OC)cc3[N+](=O)[O-])C3C(=O)OC(=O)C23)c(OC)c1 (configuration not stated)
Out: > 100 µM

In: For the molecule "COC(=O)N[C@H]1CCc2c(Cl)c(OC)c(OC)c(OC)c2-c2ccc(SC)c(=O)cc21" , give its measured TGI value.
Out: < 0.01 µM

In: Annotate the molecule "CC(C)(C)/C(O)=C\c1nc2cc(F)c(F)cc2[nH]c1=O" with its measured TGI.
Out: > 100 µM

In: Consider the molecule CC1(C)C=C(/C=C2/N(S(=O)(=O)C(F)(F)F)C(/C=C3/N(S(=O)(=O)C(F)(F)F)C(C)(C#N)CC3(C)C)=CC2(C)C)N=C1/C=C1/CC(C)(C)C(=O)N1 (configuration not stated) . State its measured TGI.
Out: > 100 µM
